# SYSTEM_UNDER_TEST: T1, extracellular domain of human BCMA (human, UniProt Q02223 1-54)
# T1 construct: amine-linked to Octet AR2G tips; also called hsBCMA; BCMA (human)
# T1 sequence: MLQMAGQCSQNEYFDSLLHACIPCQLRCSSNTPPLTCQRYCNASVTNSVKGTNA
# EXPERIMENTAL_DETAILS: Octet BLI; Fab 200 nM
QUANTITY: pKd
Keep in mind that pKd stands for -log10 of concentration in molar terms.

Query block: Item AB200-R1H26-R2Vk20 (Fab, V domains shown) VH: QVQLVQSGAEVKKPGSSVKVSCKASGGSFSNYWMHWVRQAPGQGLEWMGATYRIHSDTFYNQKFKGRVTITADKSTSTAYMELSSLRSEDTAVYYCARGAIYHGYDVLDNWGQGTLVTVSS VL: DIQMTQSPSSLSASVGDRVTITCRASQSISSYLNWYQQKPGKAPKLLIYATSNLQSGVPSRFSGSGSGTDFTLTISSLQPEDFATYYCQQYRRIPWTFGQGTKLEIKR has what recorded pKd?
Result block: 8.68

Query block: Item AB200-R1H26-R2Vk48 (Fab, V domains shown) VH: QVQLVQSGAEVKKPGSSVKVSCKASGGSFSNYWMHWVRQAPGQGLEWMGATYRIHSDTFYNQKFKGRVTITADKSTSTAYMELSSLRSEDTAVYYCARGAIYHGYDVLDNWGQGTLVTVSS VL: DIQMTQSPSSLSASVGDRVTITCRASQSISSYINWYQQKPGKAPKLLIYATSNLQIGVPSRFSGSGSGTDFTLTISSLQPEDFATYYCQQFRKIPWTFGQGTKLEIKR has what recorded pKd?
Result block: 8.64
